The reported numbers originate from ChEMBL document CHEMBL1142715.

system: Rattus norvegicus; experiment: In vivo effective dose for reversal of tryptamine-induced backward locomotion in rats; format: functional
Kindly supply the reported ED50 values for the records listed here.
Express it in mg/kg; write the number only.

// sample CN1CCN2c3ccccc3Cc3ccccc3C2C1 (stereo unspecified) [MIANSERIN] , its ED50 was 0.55

Entry under test: "CN(C)C[C@H]1C[C@@H]2c3ccccc3Cc3ccccc3[C@H]2O1" . Its ED50 was 1.2

Lookup result for CN(C)C[C@H]1CC2c3ccccc3Sc3ccc(F)cc3[C@H]2O1 (stereo in doubt; (-)-8d) ; measured ED50: 0.32

Short answer for CN1CCN2c3ncccc3Cc3ccccc3C2C1 (stereo unspecified) [MIRTAZAPINE] : ED50 was 0.5

---

UniProtKB P28223 measurements of pKi, listed per entry.
Sequence (P28223 whole entry): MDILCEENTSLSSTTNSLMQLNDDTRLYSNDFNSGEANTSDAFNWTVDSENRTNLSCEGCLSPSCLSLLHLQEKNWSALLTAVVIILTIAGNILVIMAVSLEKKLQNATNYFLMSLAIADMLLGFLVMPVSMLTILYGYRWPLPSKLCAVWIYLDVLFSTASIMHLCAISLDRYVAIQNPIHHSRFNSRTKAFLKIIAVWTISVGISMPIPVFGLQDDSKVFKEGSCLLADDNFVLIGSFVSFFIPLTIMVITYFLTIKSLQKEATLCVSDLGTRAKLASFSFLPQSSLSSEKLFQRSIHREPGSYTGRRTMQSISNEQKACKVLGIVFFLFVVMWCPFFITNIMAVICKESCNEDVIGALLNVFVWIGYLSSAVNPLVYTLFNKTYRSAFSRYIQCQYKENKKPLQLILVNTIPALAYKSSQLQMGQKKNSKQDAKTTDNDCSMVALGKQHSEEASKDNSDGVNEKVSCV
pKi: −log10 of the molar value.

Lab note: measured pKi of CN(C)C[C@H]1CC2c3ccccc3Oc3ccc(F)cc3[C@H]2O1 (some centres not stated) was < 5.26

Item: CN(C)C[C@@H]1CC2c3ccccc3Oc3ccc(F)cc3[C@H]2O1 (some centres not stated) | pKi: < 5.26

---

Kindly supply the reported Ki values for the records listed here.

Entry CN(C)C[C@H]1CC2c3ccccc3Oc3ccc(Br)cc3[C@H]2O1 (stereo partly specified) ; assay system Adrenergic receptor alpha-1 (Rattus norvegicus, UniProt P15823+P23944+P43140); Ki recorded at 234 nM

Entry CN(C)C[C@@H]1CC2c3ccccc3Sc3ccc(F)cc3[C@H]2O1 (stereo partly specified) , tested on Adrenergic receptor alpha-1 (Rattus norvegicus, UniProt P15823+P23944+P43140), has a reported Ki of 32 nM

Considering CN(C)C[C@H]1CC2c3ccccc3Sc3ccc(F)cc3[C@H]2O1 (stereo in doubt; 8d) , its Ki with Adrenergic receptor alpha-1 (Rattus norvegicus, UniProt P15823+P23944+P43140) was recorded as 8.8 nM

Recorded Ki for CN(C)C[C@@H]1CC2c3ccccc3Oc3ccc(F)cc3[C@H]2O1 (stereo partly specified) on Adrenergic receptor alpha-1 (Rattus norvegicus, UniProt P15823+P23944+P43140) was 338 nM

Hey, Adrenergic receptor alpha-1 (Rattus norvegicus, UniProt P15823+P23944+P43140) data for CN(C)C[C@H]1CC2c3ccccc3Sc3ccc(F)cc3[C@H]2O1 (stereo in doubt; (-)-8d) : Ki came out at 7.5 nM

Lab note: compound CN(C)C[C@H]1CC2c3ccccc3Oc3ccc(Cl)cc3[C@H]2O1 (stereo partly specified) tested on Adrenergic receptor alpha-1 (Rattus norvegicus, UniProt P15823+P23944+P43140); recorded Ki was 35 nM

Test item CN(C)C[C@@H]1CC2c3ccccc3Oc3ccc(Cl)cc3[C@H]2O1 (stereo partly specified) ; Adrenergic receptor alpha-1 (Rattus norvegicus, UniProt P15823+P23944+P43140); reported Ki was 228 nM

Record CN1CCN2c3ncccc3Cc3ccccc3C2C1 (stereo unspecified) has Adrenergic receptor alpha-1 (Rattus norvegicus, UniProt P15823+P23944+P43140) Ki equal to 608 nM

Tested on Adrenergic receptor alpha-1 (Rattus norvegicus, UniProt P15823+P23944+P43140): "CN(C)C[C@H]1C[C@@H]2c3ccccc3Sc3ccc(F)cc3[C@H]2O1" . Observed Ki: 41 nM

Reported Ki (Adrenergic receptor alpha-1 (Rattus norvegicus, UniProt P15823+P23944+P43140)) for entry CN(C)C[C@H]1CC2c3ccccc3Oc3ccc(F)cc3[C@H]2O1 (stereo partly specified) is 71 nM

Entry "CN(C)C[C@H]1C[C@@H]2c3ccccc3Cc3ccccc3[C@H]2O1" ; assay system Adrenergic receptor alpha-1 (Rattus norvegicus, UniProt P15823+P23944+P43140); Ki recorded at 108 nM

---

molecular target: Alpha-2C adrenergic receptor (Homo sapiens); experiment: Inhibition of [3H]rauwolscine binding to Alpha-2C adrenergic receptor
Sequence (P18825 whole entry): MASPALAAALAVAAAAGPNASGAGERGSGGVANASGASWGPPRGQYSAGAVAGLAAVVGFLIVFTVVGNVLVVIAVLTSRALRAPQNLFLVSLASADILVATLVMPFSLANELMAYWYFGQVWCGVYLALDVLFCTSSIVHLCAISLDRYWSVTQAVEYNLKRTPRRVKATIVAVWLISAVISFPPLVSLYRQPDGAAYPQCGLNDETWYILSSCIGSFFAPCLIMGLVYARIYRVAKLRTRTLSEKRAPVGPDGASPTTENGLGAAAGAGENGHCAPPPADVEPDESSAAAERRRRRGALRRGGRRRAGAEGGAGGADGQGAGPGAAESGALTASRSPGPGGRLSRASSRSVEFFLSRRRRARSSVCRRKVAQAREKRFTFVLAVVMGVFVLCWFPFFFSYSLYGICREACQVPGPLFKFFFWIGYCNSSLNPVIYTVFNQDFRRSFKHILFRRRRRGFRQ
Would you kindly list Ki for each of these molecules?
Give a bare numeral; the unit nM is implied.

So, CN1CCN2c3ccccc3Cc3ccccc3C2C1 (configuration not stated) [MIANSERIN] ? Its Ki was 3.8

Ki in this record for "CN(C)C[C@H]1C[C@@H]2c3ccccc3Cc3ccccc3[C@H]2O1" : 69

The molecule identified as CN(C)C[C@@H]1CC2c3ccccc3Sc3ccc(F)cc3[C@H]2O1 (some centres not stated) registered its Ki at 78

Lab book: Ki of CN(C)C[C@H]1CC2c3ccccc3Oc3ccc(F)cc3[C@H]2O1 (some centres not stated) noted as 200

So, CN1CCN2c3ncccc3Cc3ccccc3C2C1 (configuration not stated) [MIRTAZAPINE] ? Its Ki was 18

Memo: CN(C)C[C@H]1CC2c3ccccc3Sc3ccc(F)cc3[C@H]2O1 (stereo in doubt; (-)-8d) , reported Ki: 73

Entry under test: "CN(C)C[C@H]1C[C@@H]2c3ccccc3Sc3ccc(F)cc3[C@H]2O1" . Its Ki was 93

---

measured-metric: Ki (nM)
// note: answer is a bare numeric in nM

The reported UniProt P35367 Ki of CN(C)C[C@H]1CC2c3ccccc3Sc3ccc(F)cc3[C@H]2O1 (stereo in doubt; (-)-8d) is 0.6

Value (Ki, UniProt P35367) for record CN(C)C[C@@H]1CC2c3ccccc3Sc3ccc(F)cc3[C@H]2O1 (some centres undefined) = 1.2

Considering CN(C)C[C@H]1CC2c3ccccc3Oc3ccc(F)cc3[C@H]2O1 (some centres undefined) , its Ki with UniProt P35367 was recorded as 7.5

Value (Ki, UniProt P35367) for record "CN(C)C[C@H]1C[C@@H]2c3ccccc3Sc3ccc(F)cc3[C@H]2O1" = 1.4

---

What Ki was measured for each of the following?
Molecular target: UniProt P08913
Sequence (P08913 whole entry): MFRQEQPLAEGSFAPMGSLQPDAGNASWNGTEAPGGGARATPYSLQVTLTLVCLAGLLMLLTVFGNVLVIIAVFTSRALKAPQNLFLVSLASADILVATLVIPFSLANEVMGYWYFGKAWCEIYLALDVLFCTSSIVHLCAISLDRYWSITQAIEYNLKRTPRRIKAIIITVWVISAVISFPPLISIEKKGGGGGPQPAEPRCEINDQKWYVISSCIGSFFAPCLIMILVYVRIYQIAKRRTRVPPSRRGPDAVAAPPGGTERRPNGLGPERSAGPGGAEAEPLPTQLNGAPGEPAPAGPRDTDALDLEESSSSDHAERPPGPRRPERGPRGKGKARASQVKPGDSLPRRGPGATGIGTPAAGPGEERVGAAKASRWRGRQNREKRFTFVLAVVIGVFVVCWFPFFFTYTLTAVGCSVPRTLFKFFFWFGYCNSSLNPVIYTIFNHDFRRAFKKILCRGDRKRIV
Reply numerically in nM, unit not repeated.

The compound CN(C)C[C@H]1CC2c3ccccc3Sc3ccc(F)cc3[C@H]2O1 (stereo in doubt; 8d) , when measured on UniProt P08913, yielded Ki of 66

With UniProt P08913 as the test system, "CN(C)C[C@H]1C[C@@H]2c3ccccc3Cc3ccccc3[C@H]2O1" showed Ki of 126

Sample CN(C)C[C@@H]1CC2c3ccccc3Sc3ccc(F)cc3[C@H]2O1 (stereo partly specified) , system: UniProt P08913. Its Ki is 72

Measured Ki (UniProt P08913), entry CN(C)C[C@@H]1CC2c3ccccc3Oc3ccc(Cl)cc3[C@H]2O1 (stereo partly specified) : 302

GET /values?item= CN(C)C[C@H]1CC2c3ccccc3Sc3ccc(F)cc3[C@H]2O1 (stereo in doubt; (-)-8d) &system= UniProt P08913 returns Ki: 79

Entry CN(C)C[C@@H]1CC2c3ccccc3Oc3ccc(F)cc3[C@H]2O1 (stereo partly specified) , UniProt P08913 data, Ki value: 251

---

target: 5-hydroxytryptamine receptor 7 (Homo sapiens, UniProt P34969)
Sequence (P34969 whole entry): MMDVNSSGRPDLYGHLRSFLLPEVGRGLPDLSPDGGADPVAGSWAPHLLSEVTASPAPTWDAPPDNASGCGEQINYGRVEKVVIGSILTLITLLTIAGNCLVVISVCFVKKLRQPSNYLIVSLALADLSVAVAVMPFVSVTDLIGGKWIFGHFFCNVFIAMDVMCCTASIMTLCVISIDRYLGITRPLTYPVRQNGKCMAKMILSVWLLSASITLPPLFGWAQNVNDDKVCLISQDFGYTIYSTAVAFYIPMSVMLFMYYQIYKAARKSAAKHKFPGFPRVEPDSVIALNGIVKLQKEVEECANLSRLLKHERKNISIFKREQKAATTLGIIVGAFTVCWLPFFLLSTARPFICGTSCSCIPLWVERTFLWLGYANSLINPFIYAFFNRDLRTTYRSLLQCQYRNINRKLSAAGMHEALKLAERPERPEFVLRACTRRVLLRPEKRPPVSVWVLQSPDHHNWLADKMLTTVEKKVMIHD
Friendly reminder: Ki below 10 nM is Yes, at or above is No.

Query block: # check: Ki < 10 nM for CN(C)C[C@H]1CC2c3ccccc3Oc3ccc(Br)cc3[C@H]2O1 (stereo partly specified)
Result block: No

Query block: Here's an entry: CN(C)C[C@H]1CC2c3ccccc3Oc3ccc(Cl)cc3[C@H]2O1 (stereo partly specified) . Is its Ki below 10 nM?
Result block: No

Query block: Lab log: compare recorded Ki with 10 nM; is it strictly lower for CN(C)C[C@H]1CC2c3ccccc3Sc3ccc(F)cc3[C@H]2O1 (stereo in doubt; 8d) ?
Result block: Yes

Query block: I wonder whether CN(C)C[C@H]1CC2c3ccccc3Oc3ccc(F)cc3[C@H]2O1 (stereo partly specified) has Ki below 10 nM. Can you tell?
Result block: No

Query block: Confirm or reject: Ki of "CN(C)C[C@H]1C[C@@H]2c3ccccc3Sc3ccc(F)cc3[C@H]2O1" lies strictly below 10 nM
Result block: Yes

Query block: hey, is Ki for "CN(C)C[C@H]1C[C@@H]2c3ccccc3Cc3ccccc3[C@H]2O1" lower than 10 nM or not?
Result block: No
